- protocol: NCI Yeast Anticancer Drug Screen. Data for the rad50 strain (AID 155)
- studyConditions: S. cerevisiae rad50 strain growth inhibition; at 50.0 µM
This is part of a sample that, as a whole, favours compounds with a hit. Of some 79,000 tested, about 15% had one in any assay. Active and inactive are the calls of the source. Cut-off read from the data, not from the text of the source: active = growth inhibition above about 70%; inactive = the rest.
Pick one and only one: active, inactive

Illustrative cases are given below, each with its answer.
| compound | category |
| --- | --- |
| C=C1CC(O)C2C(C[Se]c3ccccc3)C(=O)O[C@@H]2C2C(=C)[C@@H](O)CC12 (some centres not stated) | inactive |
| CC(=O)Nc1ccc(-c2ccccc2)cc1[N+](=O)[O-] | inactive |
| Oc1ccc2oc3ccccc3c2c1 | active |
| CCOC(=O)C(Cl)C(Cl)C(=O)OCC (configuration not stated) | active |
| CCOC(=O)c1cccc(C)c1C(=O)c1ccc(C)cc1C | inactive |
| CCC(N)C(O)C(C)C (configuration not stated) | active |
| CCC1CCC2=C(C1)C(=O)c1ccccc1C2=O (configuration not stated) | inactive |
| Cc1cccc(C)c1NC(=O)CCc1nnc(N)n1N | inactive |
| Cc1ccc(S(=O)(=O)NC(Cc2ccccc2)C(=O)CCl)cc1 (configuration not stated) | active |
| Oc1cccnc1CN1CCCCC1 | inactive |

Challenge: Dear all, I need the recorded test outcome for OC(COc1ccc(Cl)cc1)CN1CCN(c2cccc(Cl)c2)CC1 (configuration not stated) , thank you.
Response given: active

Challenge: Proceed to Cc1ccc(S(=O)(=O)NC2(C=O)CCC(C(C)(C)C)CC2)cc1 (configuration not stated)
Response given: active

Challenge: Proceed to `O=C1N=c2ccc(Br)cc2=C1c1sc(=O)n(Cc2nc3ccccc3[nH]2)c1O`
Response given: active

Challenge: Proceed to `Clc1cc2c(c3ncccc13)OCN(CCc1ccccc1)C2`
Response given: active

Challenge: Proceed to `COC(=O)CSc1nc2ccccc2[nH]1`
Response given: inactive

###

- protocol: NCI Yeast Anticancer Drug Screen. Data for the sgs1 mgt1 strain (AID 161)
- studyConditions: S. cerevisiae sgs1 mgt1 strain, at 5.0 µM (retest, dose inferred, filed as 0.5)
- Description: Growth inhibition of yeast strains with defined genetic alterations is measured as a screen for potential anti-cancer activity. Selected strains with alterations in DNA damage repair or cell cycle control were exposed to compounds and growth inhibition was measured relative to vehicle treated controls. The strain used in this assay is sgs1 mgt1
About 79,000 compounds went through this panel and 15% of them were active in at least one assay; those are over-represented in the sample as a whole. The source made the active and inactive calls. Cut-off read from the data, not from the text of the source: active = growth inhibition above about 70%; inactive = the rest.
Pick one and only one: active, inactive

| compound | category |
| --- | --- |
| O=[N+]([O-])/C(C(Cl)=C(Cl)Cl)=C(/Cl)SCc1ccccc1 | active |
| O=C(O)c1ccccc1C(c1ccccc1)c1ccccc1 | inactive |
| Oc1cc2c(cc1C(c1ccc(Cl)cc1)N1CCOCC1)OCO2 (centres undefined) | inactive |
| Cc1nc(N)nc(-c2ccccc2)c1N=Nc1ccc(Cl)cc1 | inactive |
| Cc1ccc(S(=O)(=O)CC2(Br)CCc3ccccc3C2=O)cc1 (centres undefined) | inactive |
| CCN(CC)CCC(=O)c1ccc2c3c(n(C)c2c1)CCCC3 | inactive |
| COC(O)C(=O)c1ccc2c(c1)CC1(C2)Cc2cc3c(cc2C1=O)CCC3 (centres undefined) | inactive |
| CC(C)OC1=C(Cl)C(=O)c2c(cccc2[N+](=O)[O-])C1=O | inactive |
| O=C(OCC1OC(OCC(OC(=O)c2ccccc2)C(OC(=O)c2ccccc2)C(OC(=O)c2ccccc2)c2cnn(-c3ccccc3)n2)C(OC(=O)c2ccccc2)C(OC(=O)c2ccccc2)C1OC(=O)c1ccccc1)c1ccccc1 (centres undefined) | inactive |
| CCCCCCCCCCCOc1cccc(N2C(N)=NC(N)=NC2(C)C)c1 | active |

Challenge: Dear all, I need the recorded test outcome for CC(Cc1ccccc1)N1C(=O)C=CC1=O (centres undefined) , thank you.
Response given: inactive

Challenge: Proceed to `c1ccc2c(c1)-c1cccc3cncc-2c13`
Response given: inactive

Challenge: Proceed to `Cc1ccccc1Sc1ccccc1[N+](=O)[O-]`
Response given: inactive
